test system: NCI-H522 lung; test: NCI tumour cell line growth inhibition, 48 h; in the data active = GI50 below about 0.43 µM; inactive = the rest
Please reply with one of these outcomes: active, inactive

Look over these answered cases.
O=C(Nc1ccccc1OC(F)(F)F)Nc1n[nH]c2ccccc12: inactive
CCCCCN(CCCCC)CC(O)c1cc(C)c2ccc3cc(C(C)C)ccc3c2c1 (stereo not given): inactive
CC1(C)CCc2c(c3c(c4c(=O)c(O)c(-c5ccc(O)cc5)oc24)OC(C)(C)CC3)O1: inactive
COc1cc(/C=N/NC(=O)c2ccc(C(F)(F)F)nc2Nc2ccc(Cl)cc2C)ccc1O: inactive
COc1ccc(-c2nc3sccn3c2/C(N)=N/C(=N)N)cc1OC: inactive

Could you now consider this next compound?
Challenge: Which outcome was entered for the compound CSc1nc2c(c(=O)[nH]1)N=C1c3ccccc3C(=O)C1C(c1ccccc1)N2 (stereo not given) in this test?
Response given: inactive

###

test system: SW-620 colon; assay: NCI tumour cell line growth inhibition, 48 h
Where a SMILES comes first, the peptide text is derived from it. [ ]: non-standard residue; d: D form. The star is where a group is joined. ξ: configuration not given here. X6 = FC(F)(F)c1cc(NC(=S)*)cc(C(F)(F)F)c1; ξF = NC(Cc1ccccc1)C(=O)O
Please respond with reported GI50 for every item in the list.

Answered cases to consult:
COC(=O)[C@@H](NC(=O)CNC(=O)[C@H]1CCCN1C(=O)C(Cc1ccccc1)NC(=S)Nc1cc(C(F)(F)F)cc(C(F)(F)F)c1)C(C)C (stereo partly specified) (X6-[ξF][dP]GV-OMe): 3.72 µM
O=C1/C(=C/c2cccc([N+](=O)[O-])c2)COc2ccc(O)cc21: 0.521 µM
Cc1ccc(C(=O)/C(=C/c2ccc([N+](=O)[O-])cc2)SCc2ccc(Cl)cc2)cc1: 0.21 µM
CCCNC1=C2CC(C)CC(OC)[C@@H](O)[C@H](C)/C=C(\C)C(OC(N)=O)C(OC)/C=C\C=C(/C)C(=O)NC(=CC1=O)C2=O (stereo partly specified): 0.0606 µM
O=S(=O)(NC1=NCCN1C(=S)SN1CCn2c1nsc2=S)c1ccc(OC(F)(F)F)cc1: 9.62 µM
OCc1ccc(N2CCC2c2ccc(F)cc2)cc1Cl (stereo unspecified): 4.93 µM

For each listed entry, give its GI50.
1. NC(Cc1c[nH]c2c(O)cccc12)C(=O)O (stereo unspecified)
2. NC(=O)c1sc(-n2cnc3ccccc32)cc1OCc1ccccc1Br
3. CSc1nc2c(c(=O)[nH]1)N=C1c3ccccc3C(=O)C1C(c1ccccc1)N2 (stereo unspecified)
4. COC1=CC(c2ccc[nH]2)=N/C1=C\c1[nH]c(C)c(C(=O)OC(C)C)c1C
5. C#Cc1ccc(-n2c(/C=C/c3ccc(C(F)(F)F)cc3)nc3ncccc3c2=O)cc1

Response given:
1: > 100 µM; 2: 1.17 µM; 3: 2.92 µM; 4: 0.0336 µM; 5: 1.92 µM

###

system: MDA-MB-231 breast; experiment: NCI tumour cell line growth inhibition, 48 h
Where a SMILES comes first, the peptide text is derived from it. [ ]: non-standard residue; d: D form. The star is where a group is joined. ξ: configuration not given here. X6 = FC(F)(F)c1cc(NC(=S)*)cc(C(F)(F)F)c1; ξF = NC(Cc1ccccc1)C(=O)O
measured-endpoint: TGI (µM)
Give bare numbers, in µM.

Oc1cc2c3c(c1)c1cc4c(cc1c[n+]3CC2)OCO4: 29.9
FC(F)(F)c1cc(Cl)cnc1N/N=C(/c1ccccc1)c1ccccn1: 40.2
COC(=O)[C@@H](NC(=O)CNC(=O)[C@H]1CCCN1C(=O)C(Cc1ccccc1)NC(=S)Nc1cc(C(F)(F)F)cc(C(F)(F)F)c1)C(C)C (stereo partly specified) (X6-[ξF][dP]GV-OMe): 3.14
Oc1ccc(-c2nc(-c3cccnc3)c(-c3ccc(F)cc3)[nH]2)cc1: 41.7
CCC(CO)Nc1nc2ccc(Cl)cc2c2ccccc12 (stereo unspecified): 15.9
O=[N+]([O-])/C(C(Cl)=C(Cl)Cl)=C(\SCc1ccccc1)N1CCCCC1: 37.3
Cc1ccc(NC2=C(Cl)C(=O)N(Cc3ccccc3)C2=O)cc1O: 61.5
CCCCOC(=O)C1OC(O[C@H]2CCC3(C)C(CCC4(C)C3CC=C3C5CC(C)(C)CCC5(C(=O)O)CC[C@]34C)C2(C)C)C(OC2OC(CO)C(O)C(O)C2O)C(OC2OC(CO)C(O)C(O)C2O)C1O (stereo partly specified): 32.2
O=C1C(Cl)=C(Nc2cccc(Cl)c2)C(=O)N1Cc1ccc(Cl)cc1Cl: 12.9
O=C(/C=C/C12c3ccccc3C(c3ccccc31)C1C(=O)NC(=O)C12)c1ccncc1 (stereo unspecified): 12.7

For each listed entry, give its TGI.
1. C=C(CN1CCN(c2ccc(Cl)cc2F)CC1)c1ccc(C(=O)Nc2ccccc2N)cc1
2. Cc1cc(I)cc(CN(C)CCCCN2CCCCC2)c1O
3. CCCCCN(CCCCC)CCCNc1c2c(nc3ccc(Cl)cc13)CCCC2
4. O=C1/C(=C/c2cccc([N+](=O)[O-])c2)COc2ccc(O)cc21
5. COc1cc(/C=N/NC(=O)c2ccc(C(F)(F)F)nc2Nc2ccc(Cl)cc2C)ccc1O
6. CC1(C)CCc2c(c3c(c4c(=O)c(O)c(-c5ccc(O)cc5)oc24)OC(C)(C)CC3)O1

Response given:
1: 3.64; 2: 43; 3: 13.1; 4: 4.75; 5: 10.3; 6: 84.1

For each listed entry, give its TGI.
1. N#CC1=C(N)N(c2ccccc2)C(c2ccco2)C1(C#N)C#N (stereo unspecified)
2. C=C1c2nc3ccccc3n2C=C(c2ccccc2)N1c1ccc([N+](=O)[O-])cc1

Response given:
[35.1, 14.2]

Where these numbers come from: PubChem BioAssay (NCI)
